Tested on: Escherichia coli TOP10;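 also: peptides expressed intracellularly from a pBAD plasmid library in pooled LB shake-flask culture, induced with 0.3% L-arabinose, DNA abundance read by NGS, three biological replicates, DESeq2 with apeglm shrinkage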
Protocol Text: shrunken log2 fold change of peptide-encoding DNA abundance (4.5 h post-induction vs induction); higher = less antimicrobial activity (less host growth inhibition)
Reported Conditions: time post-induction: 4.5 h; library: site-saturation at positions 5, 18, 19, 20
Could you label it TRUE if measured shrunken log2 fold change is -0.08 or higher, and FALSE otherwise?

Reference set, count: 5
RRIRARPPRLPRPRPRPHFPPRP; TRUE
RRIRLRPPRLPRPRPRPTTRPRP; TRUE
RRIRIRPPRLPRPRPRPDECPRP; TRUE
RRIRNRPPRLPRPRPRPTKHPRP; TRUE
RRIRARPPRLPRPRPRPPDCPRP; TRUE

Hi team, for `RRIRIRPPRLPRPRPRPFKVPRP` , is the recorded shrunken log2 fold change at or above -0.08?
FALSE

Hi team, for `RRIRERPPRLPRPRPRPTRFPRP` , is the recorded shrunken log2 fold change at or above -0.08?
TRUE

Hi team, for `RRIRIRPPRLPRPRPRPPHVPRP` , is the recorded shrunken log2 fold change at or above -0.08?
FALSE

Hi team, for `RRIRYRPPRLPRPRPRPGGFPRP` , is the recorded shrunken log2 fold change at or above -0.08?
FALSE

Hi team, for `RRIRHRPPRLPRPRPRPVKMPRP` , is the recorded shrunken log2 fold change at or above -0.08?
FALSE
